# Tested on: HeLa cells
# PROTOCOL: Potentiation Factor (PF50): MMS growth inhibition, SRB assay
# Assay type: cell-based
# CONDITION DETAILS: MMS 0-10 μg/ml, PARP inhibitor at 30 nM, ratio IC50 control / IC50 + inhibitor
So I've got a bunch of compounds here, and I need their PF50 (30 nM) values.

Past entries and their recorded results:
COMPOUND: N#Cc1nccnc1OC1CCN(C(=O)c2cc(Cc3n[nH]c(=O)c4ccccc34)ccc2F)CC1 [Compound 26l]
ENDPOINT VALUE: 1.2
//
COMPOUND: COC[C@H](C)OC1CCN(C(=O)c2cc(Cc3n[nH]c(=O)c4ccccc34)ccc2F)CC1 [Compound 93]
ENDPOINT VALUE: 2.8
//
COMPOUND: COc1cccc(OC2CCN(C(=O)c3cc(Cc4n[nH]c(=O)c5ccccc45)ccc3F)CC2)c1 [Compound 8a]
ENDPOINT VALUE: 1.6
//
COMPOUND: C=CCOC1CCN(C(=O)c2cc(Cc3n[nH]c(=O)c4ccccc34)ccc2F)CC1 [Compound 16]
ENDPOINT VALUE: 3.4
//
COMPOUND: O=C(c1cc(Cc2n[nH]c(=O)c3ccccc23)ccc1F)N1CCC(Oc2ccncn2)CC1 [Compound 26a]
ENDPOINT VALUE: 3.7

For every record below, what is its PF50 (30 nM)?
1. O=C(c1cc(Cc2n[nH]c(=O)c3ccccc23)ccc1F)N1CCC(OC(F)F)CC1 [Compound 19]
2. COC1(C)CCN(C(=O)c2cc(Cc3n[nH]c(=O)c4ccccc34)ccc2F)CC1 [Compound 24]

result:
2.5
1.5
